The values you see were collected from PubChem BioAssay (Tox21).

assay-overview: qHTS assay to identify small molecule agonists of the RXR signaling pathway - cell viability counter screen (AID 1159529); further: nearly all actives have a fitted effect of over 50% in size
condition-description: RXR-alpha-bla HEK293T viability, CellTiter-Glo, 16 h; series mostly up to 76.8 µM
Results filed as inconclusive are left out. Active and inactive are the calls of the source. The call rests on the fitted dose curve; in most records, active means well fitted cell-killing curve with a large enough effect in the repeat runs; inconclusive means weak or mixed curves, or effect the other way; inactive means no such curve, though single readings can be large or run the other way.
Your response should consist of one outcome taken from t = active, f = inactive

Query :: # outcome recorded in this test, key = O=C(NC(=O)c1ccccc1Cl)Nc1ccc(OC(F)(F)F)cc1
Result :: f

Query :: What is the recorded call for this compound in the test? CC(Cc1ccccc1)N(C)Cc1ccco1 (stereo not drawn)
Result :: f

Query :: How did this test come out for COc1nc(C)nc(NC(=O)NS(=O)(=O)c2ccccc2Cl)n1 ?
Result :: f

Query :: Any idea what this test logged for Cc1cc2c3c(c1)C(c1ccccc1)=N[C@@H](NC(=O)c1ccncc1)C(=O)N3CC2 ?
Result :: f

Query :: Field: outcome | Entry: CCCCN(CCCC)C(=S)S
Result :: f

Query :: What was the test verdict on CC(C)C(Br)C(=O)NC(N)=O (stereo not drawn) ?
Result :: f

Query :: Tell me the recorded outcome of this test for OCC(Br)CBr (stereo not drawn) .
Result :: f

Query :: What did this assay record as the result for CCCCn1cc[n+](C)c1 (tested in a mixture with another compound) ?
Result :: f

Query :: Just curious, what result did CCCN get here?
Result :: f

Query :: # fetch the recorded call for COc1ccc2c3c1O[C@H]1[C@H](O)CC[C@H]4[C@@H](C2)N(C)CC[C@@]341 here
Result :: f

Query :: Look up the recorded call for CC(C)[C@@H](Nc1ccc(C(F)(F)F)cc1Cl)C(=O)OC(C#N)c1cccc(Oc2ccccc2)c1 (stereo partly drawn) in this test.
Result :: f

Query :: I would be grateful if you could indicate the recorded call for Oc1cc(Cl)cc(Cl)c1 .
Result :: f

Query :: Answer briefly: the call reported for FC(F)C(F)(F)OCC(Cn1cncn1)c1ccc(Cl)cc1Cl (stereo not drawn) in this assay.
Result :: t

Query :: Entry Oc1cc(Cl)c(Cl)c(Cl)c1Cl : call = ?
Result :: f

Query :: Which outcome was entered for the compound Nc1ccc(Cl)cc1C(=O)c1ccccc1F in this test?
Result :: f

Query :: How did this test come out for S=C=NCCc1ccccc1 ?
Result :: f

Query :: What classification did CC(C)Br end up with in this test?
Result :: f

Query :: Entry CN1CCc2cc3c(cc2C1O)OCO3 (stereo not drawn) : call = ?
Result :: f

Query :: In this assay, the call recorded for COc1ccc2[nH]cc(CCN(C(C)C)C(C)C)c2c1 was what?
Result :: f

Query :: # fetch the recorded call for c1cc[n+]2c(c1)-c1cccc[n+]1CC2 here
Result :: f

Query :: What classification did C#CC1(O)CCCCC1 end up with in this test?
Result :: f

Query :: Assay result, entry COP(=S)(OC)Oc1nc(Cl)c(Cl)cc1Cl — outcome?
Result :: f

Query :: Returns: the outcome recorded for COP(=O)(OC)Oc1ccc([N+](=O)[O-])cc1 in this assay.
Result :: f

Query :: Call for entry CC1CN1 (stereo not drawn) :
Result :: f

Query :: Dear colleague, could you share the recorded outcome for C=C(C)C(=O)[O][Sn]([CH2]CCC)([CH2]CCC)[CH2]CCC when you have a moment?
Result :: t

Query :: Could you please tell me the result logged for Cc1nn(-c2cc(NS(C)(=O)=O)c(Cl)cc2Cl)c(=O)n1C(F)F in this assay?
Result :: f

Query :: Please state the recorded outcome for this compound: O=C(Cl)c1ccccc1F
Result :: f

Query :: Hi, do you know how CCOP(=O)(Sc1ccccc1)Sc1ccccc1 came out in this test?
Result :: f
